Test: Evaluation of solubility in organic solvents
Assay type: physicochemical
Details: n-octane, room temperature (25° C.), complete dissolution by visual observation
This section presents compounds with their documented Solubility [% by weight] n-octane values.

Compound | Solubility [% by weight] n-octane
CCCc1cc2ccc3cc4c(ccc5cc(CCC6CCCCC6)sc54)cc3c2s1 [Compound 4] | ≥0.5 % by weight
c1cc2cc(CCC3CCCC3)sc2c2c1-c1c-2ccc2cc(CCC3CCCC3)sc12 [Compound 23] | ≥0.2 % by weight
CCCCCCc1cc2ccc3cc4c(ccc5cc(CCC6CCCCC6)sc54)cc3c2s1 [Compound 8] | ≥0.5 % by weight
c1cc2ccc3cc4c(ccc5cc(CCC6CCCCC6)sc54)cc3c2s1 [Compound 1] | ≥0.1 % by weight
CC(C)Cc1cc2ccc3cc4c(ccc5cc(CCC6CCCC6)sc54)cc3c2s1 [Compound 12] | ≥0.5 % by weight
CCCCCCc1cc2ccc3cc4c(ccc5cc(CCC6CCCC6)sc54)cc3c2s1 [Compound 13] | ≥0.5 % by weight
c1cc2cc(CCC3CCCCC3)sc2c2cc3ccc4cc(CCC5CCCC5)sc4c3cc12 [Compound 14] | ≥1.0 % by weight
c1cc2ccc3c(c2s1)-c1ccc2cc(CCC4CCCCC4)sc2c1-3 [Compound 19] | ≥0.5 % by weight
CCCCCCc1cc2ccc3cc4c(ccc5cc(CCCC6CCCCC6)sc54)cc3c2s1 [Compound 18] | ≥0.2 % by weight
c1cc2ccc3cc4c(ccc5cc(CCC6CCCC6)sc54)cc3c2s1 [Compound 9] | ≥1.0 % by weight
c1cc2ccc3cc4c(ccc5cc(CCCC6CCCCC6)sc54)cc3c2s1 [Compound 15] | ≥0.5 % by weight
CCCCc1cc2ccc3cc4c(ccc5cc(CCC6CCCCC6)sc54)cc3c2s1 [Compound 6] | ≥0.5 % by weight
c1cc2cc(CCC3CCCCC3)sc2c2c1-c1c-2ccc2cc(CCC3CCCCC3)sc12 [Compound 20] | ≥0.5 % by weight
CCCCCc1cc2ccc3cc4c(ccc5cc(CCC6CCCCC6)sc54)cc3c2s1 [Compound 7] | ≥0.2 % by weight
CC(C)Cc1cc2ccc3cc4c(ccc5cc(CCC6CCCCC6)sc54)cc3c2s1 [Compound 5] | ≥0.2 % by weight
